Value type: melting point

Nc1ccc2c(c1)C(CN1CCCCC1)CO2 (centres undefined)    144 to 150 °C
N#CC(c1ccnc(NCCc2c[nH]cn2)n1)c1nc2ccccc2s1 (centres undefined)    257 to 258 °C
Cn1nc(Sc2ccc(C(=O)OCC(C)(C)C)c(Cl)c2)n(C)c1=O    101 °C
OC1CCCc2cc(F)cc(F)c21 (centres undefined)    102 to 103 °C
Cc1cc2n(c1)CN(CCCO)c1ccccc1-2    77 to 78 °C
CCCCCCCC(=O)N(C)Cc1ccc(OCc2ccccc2)c(-c2ccc(C=C3SC(=O)NC3=O)cc2)c1    93 °C
CC(C)Cn1c(CNC(=O)OC(C)(C)C)c(-c2ccccc2)c2cc(CO)ccc2c1=O    169 to 170 °C
COc1c(CC(=O)O)cccc1Oc1ccccc1Cl    87 to 92 °C
COc1ccc(S(=O)(=O)NCCCCCCCC(=O)O)cc1    102 to 103 °C
Clc1ccccc1N=Cc1ccc(-c2nc3ccccn3n2)cc1    135 to 136 °C
CC1(C)CNc2nc3cnc4ccccc4c3n2C1    326 to 330 °C
CCc1nn(CCO)c(CC)c1Oc1cc(C#N)cc(S(C)(=O)=O)c1    133 °C
CC(=O)OC1CSC(Oc2ccccc2C(C)=O)C(OC(C)=O)C1OC(C)=O (centres undefined)    112 °C
O=C(NCCCO)C1=C(C(=O)Nc2ccc(Cl)cc2F)CCCC1    138 °C
CC1(C)COc2ccc(C[C@@H](NC(=O)c3ccc(F)c4ccccc34)[C@@H](O)c3cccc(Cl)c3)cc21 (racemic)    131 to 133 °C
CC(C)N1CCN(c2ccc(Br)cn2)CC1    76 to 78 °C
CC(C)(C)OC(=O)NC1COCCCC=CC2CC2(C(=O)NS(=O)(=O)C2CC2)NC(=O)C2CC(OC(=O)N3CCc4ccccc43)CN2C1=O (centres undefined)    128 to 130 °C
CCCn1nc(-c2cnc(N)nc2-c2ccccc2)ccc1=O    188 to 189 °C
CN(C)Cc1cc([N+](=O)[O-])cc2c(Nc3cccc(Br)c3)c(C#N)cnc12    223 to 226 °C
O=C(Nc1ccc2c(c1)C(=O)C1(CC1)O2)OCc1ccccc1    118 to 119 °C
O=C1N(Cc2ccc(-c3ccccc3C(F)(F)F)o2)c2ccccc2C12COc1cc3c(cc12)OCO3 (centres undefined)    124 to 126 °C
CCOC(=O)CN1C(=O)[C@@H](N)[C@H](c2ccccc2)Sc2cc(Cl)ccc21 (relative stereo)    173 to 175 °C
Cc1nc(Cl)c2n1-c1ccccc1C(c1ccccc1F)N(C)C2 (centres undefined)    156 to 158 °C
COc1ccccc1CCC1CCCCn2c1nc(-c1ccncn1)cc2=O (racemic)    155 to 157 °C
Cn1cc2c(C3C(=O)Nc4ccc(Br)cc43)nc(NCCc3cccnc3)nc2n1 (centres undefined)    314 to 317 °C
Cc1ccc(N(C)S(=O)(=O)c2cccs2)c2[nH]c(-c3nccs3)cc12    159 to 160 °C
Clc1ccc2cc(OC3CCCCO3)ccc2n1 (centres undefined)    122 to 124 °C
COc1ccc(C2=C(c3ccc(S(C)(=O)=O)cc3)CCC2)cc1F    128 to 129 °C
O=c1c2[nH]c(C(C3CC3)C3CC3)nc2n(C2CC2)c(=O)n1C1CC1    197 to 198 °C
